# assayed-system: T1, RBFOX1 RRM (Homo sapiens, UniProt Q9NWB1 109-208)
# T1 sequence: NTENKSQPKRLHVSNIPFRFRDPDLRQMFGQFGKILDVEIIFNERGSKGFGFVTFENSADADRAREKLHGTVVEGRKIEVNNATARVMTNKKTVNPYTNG
# method-notes: EMSA; HiTS-Eq, 1 nM pool, 10 min; buffer printed only for the single-RNA assays: 10 mM Tris pH 7.5, 150 mM NaCl, 3.4 mM EDTA, 0.001% NP-40, 30 C
# assay-setup: tags: His6 N-terminal (pET28a); label: 5' 32P
Over roughly 16,000 sequences, “ka relative to ugcaugu” has its median near 0.0091; the highest 2% begin near 0.032. Shown is part of a subset that was picked to be rich in the highest values.

[
  {
    "binder": "UUGCAUG (DNA:RNA) RNA: GGGAGACCGGAAUUCAGAUUGUCCUUGCAUGUUAAAUCCCGUCGUAGCCACCA DNA 1: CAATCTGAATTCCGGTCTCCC DNA 2: TGGTGGCTACGACGGGATT",
    "binding signal": "1 KA relative to UGCAUGU"
  },
  {
    "binder": "GUUUUAG (DNA:RNA) RNA: GGGAGACCGGAAUUCAGAUUGUCCGUUUUAGUUAAAUCCCGUCGUAGCCACCA DNA 1: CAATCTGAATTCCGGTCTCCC DNA 2: TGGTGGCTACGACGGGATT",
    "binding signal": "0.0145 KA relative to UGCAUGU"
  },
  {
    "binder": "UCGUGUC (DNA:RNA) RNA: GGGAGACCGGAAUUCAGAUUGUCCUCGUGUCUUAAAUCCCGUCGUAGCCACCA DNA 1: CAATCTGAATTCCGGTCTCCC DNA 2: TGGTGGCTACGACGGGATT",
    "binding signal": "0.0187 KA relative to UGCAUGU"
  },
  {
    "binder": "GUGCAUA (DNA:RNA) RNA: GGGAGACCGGAAUUCAGAUUGUCCGUGCAUAUUAAAUCCCGUCGUAGCCACCA DNA 1: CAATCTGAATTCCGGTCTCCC DNA 2: TGGTGGCTACGACGGGATT",
    "binding signal": "0.0221 KA relative to UGCAUGU"
  },
  {
    "binder": "UUGCAUC (DNA:RNA) RNA: GGGAGACCGGAAUUCAGAUUGUCCUUGCAUCUUAAAUCCCGUCGUAGCCACCA DNA 1: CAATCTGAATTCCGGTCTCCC DNA 2: TGGTGGCTACGACGGGATT",
    "binding signal": "0.022 KA relative to UGCAUGU"
  },
  {
    "binder": "GGAGAGC (DNA:RNA) RNA: GGGAGACCGGAAUUCAGAUUGUCCGGAGAGCUUAAAUCCCGUCGUAGCCACCA DNA 1: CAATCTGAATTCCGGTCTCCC DNA 2: TGGTGGCTACGACGGGATT",
    "binding signal": "0.0169 KA relative to UGCAUGU"
  },
  {
    "binder": "UUGCAAG (DNA:RNA) RNA: GGGAGACCGGAAUUCAGAUUGUCCUUGCAAGUUAAAUCCCGUCGUAGCCACCA DNA 1: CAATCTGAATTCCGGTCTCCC DNA 2: TGGTGGCTACGACGGGATT",
    "binding signal": "0.0333 KA relative to UGCAUGU"
  },
  {
    "binder": "GGAAGCU (DNA:RNA) RNA: GGGAGACCGGAAUUCAGAUUGUCCGGAAGCUUUAAAUCCCGUCGUAGCCACCA DNA 1: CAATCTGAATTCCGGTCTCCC DNA 2: TGGTGGCTACGACGGGATT",
    "binding signal": "0.0135 KA relative to UGCAUGU"
  },
  {
    "binder": "GUGCAUC (DNA:RNA) RNA: GGGAGACCGGAAUUCAGAUUGUCCGUGCAUCUUAAAUCCCGUCGUAGCCACCA DNA 1: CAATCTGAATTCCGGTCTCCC DNA 2: TGGTGGCTACGACGGGATT",
    "binding signal": "0.0315 KA relative to UGCAUGU"
  }
]
